Tested on: platelets in whole blood
assayNotes: Platelet function testing with the Hemostasis Mechanism Analyzer (HMA): clumping, sticking, clotting in whole blood
Format: cell-based, human
conditions: in vitro whole blood assay; clumping, sticking, clotting
measure: activity in the platelet assays (active agent or inactive)

> print(dat)
                                   compound  observedresult
1  C[N+](C)(C)[C@@H](Cc1c[nH]c(=S)[nH]1)C(=O)[O-]        inactive
2                  Cn1c(-c2ccccc2)c[nH]c1=S        inactive
3  O=C(O)CCCCC1CCSS1 (single isomer, unassigned)        inactive

====

Test system: platelets in whole blood
assayNotes: Platelet function testing with the Hemostasis Mechanism Analyzer (HMA): clumping, sticking, clotting in whole blood
Type: cell-based, human
conditions: Homo sapiens, Platelet; Dosage (mg/ml) 6.7; 0 dosage = 100; read-out: % clot time increase
measure: activity at 6700 µg/mL (%)

> print(dat)
                                   compound                    system                 measure  observedresult
1                               Sc1ncc[nH]1  platelets in whole blood  activity at 6700 µg/mL              99
2  O=C(O)CCCCC1CCSS1 (single isomer, unassigned)  platelets in whole blood  activity at 6700 µg/mL             104
3                                 Cn1cnnc1S  platelets in whole blood  activity at 6700 µg/mL             108
4                                 Cn1nnnc1S  platelets in whole blood  activity at 6700 µg/mL             160
5                        OCc1c[nH]c2ccccc12  platelets in whole blood  activity at 6700 µg/mL             105
6  CCOC(=O)Cc1nnn[nH]1 [Compound 80, ethyl 2-(1H-tetrazol-5-yl)acetate]  platelets in whole blood  activity at 6700 µg/mL             133

====

Tested on: platelets in whole blood
assayNotes: Platelet function testing with the Hemostasis Mechanism Analyzer (HMA): clumping, sticking, clotting in whole blood
Type: cell-based, human
conditions: Homo sapiens, Platelet; Dosage (mg/ml) 5; 0 dosage = 100; read-out: % clot time increase
measure: activity at 5000 µg/mL (%)

> print(dat)
                                   molecule  endpointunit  observedresult
1                                 Cn1nnnc1S             %             132
2                                 Cn1cnnc1S             %             100
3                                  Cn1cncn1             %             105
4  OC(c1ccccc1)c1nnn[nH]1 (centres unmarked)             %             113
5                               Cc1ncsc1CCO             %             110
6                              CSc1nnn[nH]1             %             191
7                         O=C(O)Cc1nnn[nH]1             %             217
8  CCOC(=O)Cc1nnn[nH]1 [Compound 80, ethyl 2-(1H-tetrazol-5-yl)acetate]             %             121

====

Tested on: platelets in whole blood
assayNotes: Platelet function testing with the Hemostasis Mechanism Analyzer (HMA): clumping, sticking, clotting in whole blood
Assay type: cell-based, human
conditions: Homo sapiens, Platelet; Dosage (mg/ml) 6.7; 0 dosage = 100; read-out: % clump time increase
Each entry below carries its reported activity at 6700 µg/mL.
measure: activity at 6700 µg/mL (%)

> print(dat)
                 molsmiles                 measure  observedresult
1                Cc1ncsc1C  activity at 6700 µg/mL             195
2           COCCc1nn[nH]n1  activity at 6700 µg/mL             186
3                 Cn1cncn1  activity at 6700 µg/mL             130
4                Cn1nnnc1S  activity at 6700 µg/mL             292
5  COc1ccc(-c2nnn[nH]2)cc1  activity at 6700 µg/mL             122

====

Test system: platelets in whole blood
assayNotes: Platelet function testing with the Hemostasis Mechanism Analyzer (HMA): clumping, sticking, clotting in whole blood
Format: cell-based, human
conditions: Homo sapiens, Platelet; Dosage (mg/ml) 6.7; 0 dosage = 100; read-out: % clump time increase
Entries and their measured activity at 6700 µg/mL follow.
measure: activity at 6700 µg/mL (%)

> print(dat)
                                   compound  observedresult
1                               Cc1ncsc1CCO             192
2                                 Cn1cnnc1S             115
3  OC(c1ccccc1)c1nnn[nH]1 (stereo not drawn)             160
4                        OCc1c[nH]c2ccccc12             109
5  O=C(O)CCCCC1CCSS1 (single isomer, unassigned)              97
6      CCCCC[C@H](O)CC(=O)CCc1ccc(O)c(OC)c1             106
7  CCOC(=O)Cc1nnn[nH]1 [Compound 80, ethyl 2-(1H-tetrazol-5-yl)acetate]             207
8                               Sc1ncc[nH]1             113
9             FC(F)(F)c1ccc(-c2nnn[nH]2)cc1             127
